Each item that follows carries a reported binding signal.
Target: POU2 (OCT2 POU domain) (human, UniProt P09086 175-386)
Sequence: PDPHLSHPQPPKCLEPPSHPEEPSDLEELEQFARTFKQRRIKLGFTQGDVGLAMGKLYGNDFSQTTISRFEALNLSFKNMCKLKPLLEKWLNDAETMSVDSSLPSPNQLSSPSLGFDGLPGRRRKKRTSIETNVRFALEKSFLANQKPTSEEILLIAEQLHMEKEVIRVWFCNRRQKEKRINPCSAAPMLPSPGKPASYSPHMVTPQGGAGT
Test: EMSA-SELEX-seq; no BOB1; 20 mM Tris-HCl pH 7.6, 140 mM NaCl, 10% glycerol, 0.5 mM EDTA, 0.05% Triton X-100, 0.1 mg/mL BSA, 0.1 mg/mL poly(dI-dC), 5 mM DTT, room temperature, 20 min; high values mean tight binding
Settings: protein: recombinant; dsDNA, one strand shown

Consider the following illustrative entries.
[[record]]
residue_string = "ACGCGAAC"
reading = "0.0121 % of ANNNNAAN 8-mers"

[[record]]
residue_string = "AGAGAAAG"
reading = "0.0501 % of ANNNNAAN 8-mers"

[[record]]
residue_string = "AGAGTAAT"
reading = "0.0777 % of ANNNNAAN 8-mers"

[[record]]
residue_string = "AACTAAAC"
reading = "0.0299 % of ANNNNAAN 8-mers"

[[record]]
residue_string = "AGGTTAAT"
reading = "0.216 % of ANNNNAAN 8-mers"


Read the next record carefully.
Given the entry "ATCTTAAA" , report its measured binding signal.
0.0552 % of ANNNNAAN 8-mers

----------
Each item that follows carries a reported binding signal.
Target: POU2 (OCT2 POU domain) (human, UniProt P09086 175-386)
Sequence: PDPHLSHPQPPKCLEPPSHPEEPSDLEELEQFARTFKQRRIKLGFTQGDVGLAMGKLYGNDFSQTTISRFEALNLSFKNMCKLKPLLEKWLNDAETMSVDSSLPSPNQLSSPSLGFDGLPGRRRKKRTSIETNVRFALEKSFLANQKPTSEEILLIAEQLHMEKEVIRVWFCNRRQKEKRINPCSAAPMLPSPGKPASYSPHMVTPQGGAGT
Test: EMSA-SELEX-seq; no BOB1; 20 mM Tris-HCl pH 7.6, 140 mM NaCl, 10% glycerol, 0.5 mM EDTA, 0.05% Triton X-100, 0.1 mg/mL BSA, 0.1 mg/mL poly(dI-dC), 5 mM DTT, room temperature, 20 min; high values mean tight binding
Details: protein: recombinant; dsDNA, one strand shown

Given the entry "AAGTTAAA" , report its measured binding signal.
0.0857 % of ANNNNAAN 8-mers

Given the entry "AGTTGAAA" , report its measured binding signal.
0.0489 % of ANNNNAAN 8-mers

Given the entry "ATGCGAAC" , report its measured binding signal.
0.0357 % of ANNNNAAN 8-mers

Given the entry "AGGTGAAT" , report its measured binding signal.
0.119 % of ANNNNAAN 8-mers

Given the entry "AATCAAAG" , report its measured binding signal.
0.0857 % of ANNNNAAN 8-mers

Given the entry "ACCATAAT" , report its measured binding signal.
0.0967 % of ANNNNAAN 8-mers

Given the entry "ACAAAAAA" , report its measured binding signal.
0.0621 % of ANNNNAAN 8-mers

Given the entry "ACAGCAAT" , report its measured binding signal.
0.0288 % of ANNNNAAN 8-mers

Given the entry "AAATTAAG" , report its measured binding signal.
0.342 % of ANNNNAAN 8-mers

Given the entry "ATAATAAG" , report its measured binding signal.
0.258 % of ANNNNAAN 8-mers

Given the entry "ATCTAAAC" , report its measured binding signal.
0.0374 % of ANNNNAAN 8-mers

Given the entry "AACAAAAC" , report its measured binding signal.
0.0409 % of ANNNNAAN 8-mers

Given the entry "AGGACAAC" , report its measured binding signal.
0.0305 % of ANNNNAAN 8-mers

Given the entry "AGGGGAAG" , report its measured binding signal.
0.0673 % of ANNNNAAN 8-mers

Given the entry "AAGCGAAT" , report its measured binding signal.
0.0541 % of ANNNNAAN 8-mers

----------
Each item that follows carries a reported binding signal.
Target: POU1 (OCT1 POU domain) (human, UniProt P14859 260-458)
Sequence (P14859 260-458): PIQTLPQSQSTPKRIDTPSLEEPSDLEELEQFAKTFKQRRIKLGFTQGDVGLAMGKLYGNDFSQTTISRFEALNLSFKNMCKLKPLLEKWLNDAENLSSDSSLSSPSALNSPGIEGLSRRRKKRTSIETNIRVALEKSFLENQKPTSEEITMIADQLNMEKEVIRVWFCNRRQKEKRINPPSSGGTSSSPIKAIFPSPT
Experiment: EMSA-SELEX-seq; no BOB1; 20 mM Tris-HCl pH 7.6, 140 mM NaCl, 10% glycerol, 0.5 mM EDTA, 0.05% Triton X-100, 0.1 mg/mL BSA, 0.1 mg/mL poly(dI-dC), 5 mM DTT, room temperature, 20 min; high values mean tight binding
Conditions: protein: recombinant; dsDNA, one strand shown

[[record]]
residue_string = "ATGCTAAT"
reading = "1.85 % of ANNNNAAN 8-mers"

[[record]]
residue_string = "ATATTAAC"
reading = "0.151 % of ANNNNAAN 8-mers"

[[record]]
residue_string = "AGCGGAAT"
reading = "0.0622 % of ANNNNAAN 8-mers"

[[record]]
residue_string = "ACGGTAAC"
reading = "0.0164 % of ANNNNAAN 8-mers"


Given the entry "AAGGGAAG" , report its measured binding signal.
0.05 % of ANNNNAAN 8-mers

Given the entry "ATGGCAAT" , report its measured binding signal.
0.0545 % of ANNNNAAN 8-mers

Given the entry "AAAGAAAC" , report its measured binding signal.
0.0355 % of ANNNNAAN 8-mers

Given the entry "ATCTCAAC" , report its measured binding signal.
0.0252 % of ANNNNAAN 8-mers

Given the entry "ACCTGAAG" , report its measured binding signal.
0.0137 % of ANNNNAAN 8-mers

Given the entry "ACGGCAAT" , report its measured binding signal.
0.0332 % of ANNNNAAN 8-mers

----------
Biological target: POU2 (OCT2 POU domain);BOB1 (OBF1, OCA-B) (human;human, UniProt P09086;Q16633 175-386;1-256, |)
Sequence 1: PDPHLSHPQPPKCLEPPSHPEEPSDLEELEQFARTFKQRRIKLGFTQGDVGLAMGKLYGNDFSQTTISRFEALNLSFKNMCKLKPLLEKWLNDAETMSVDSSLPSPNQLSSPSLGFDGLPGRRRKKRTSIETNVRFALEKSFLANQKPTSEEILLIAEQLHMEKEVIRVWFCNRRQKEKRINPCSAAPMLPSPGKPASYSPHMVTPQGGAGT
Sequence 2: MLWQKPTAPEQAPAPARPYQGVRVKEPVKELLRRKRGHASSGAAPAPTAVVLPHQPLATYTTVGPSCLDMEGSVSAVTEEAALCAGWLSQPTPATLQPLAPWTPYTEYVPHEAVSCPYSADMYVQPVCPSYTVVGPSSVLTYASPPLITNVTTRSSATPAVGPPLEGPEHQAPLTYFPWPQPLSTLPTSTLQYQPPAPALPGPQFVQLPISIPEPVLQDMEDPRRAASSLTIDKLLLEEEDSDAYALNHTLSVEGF
Assay: EMSA-SELEX-seq; with BOB1 (ternary complex band); 20 mM Tris-HCl pH 7.6, 140 mM NaCl, 10% glycerol, 0.5 mM EDTA, 0.05% Triton X-100, 0.1 mg/mL BSA, 0.1 mg/mL poly(dI-dC), 5 mM DTT, room temperature, 20 min; high values mean tight binding
Conditions: protein: recombinant;recombinant; copies: 1;1; dsDNA, one strand shown
parameter_measured: binding signal

Consider the following illustrative entries.
[[record]]
residue_string = "ACTGAAAC"
reading = "0.0173 % of ANNNNAAN 8-mers"

[[record]]
residue_string = "ATAGTAAA"
reading = "0.106 % of ANNNNAAN 8-mers"


Given the entry "AGAACAAA" , report its measured binding signal.
0.033 % of ANNNNAAN 8-mers

Given the entry "ACTCAAAC" , report its measured binding signal.
0.0149 % of ANNNNAAN 8-mers

----------
Target: POU2 (OCT2 POU domain) (human, UniProt P09086 175-386)
Sequence: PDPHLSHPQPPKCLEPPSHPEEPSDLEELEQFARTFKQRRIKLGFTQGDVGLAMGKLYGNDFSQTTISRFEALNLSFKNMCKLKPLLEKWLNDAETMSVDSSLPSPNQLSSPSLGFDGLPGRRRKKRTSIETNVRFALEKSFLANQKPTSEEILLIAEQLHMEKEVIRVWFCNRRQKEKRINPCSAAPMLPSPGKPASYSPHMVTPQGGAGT
Assay: EMSA-SELEX-seq; no BOB1; 20 mM Tris-HCl pH 7.6, 140 mM NaCl, 10% glycerol, 0.5 mM EDTA, 0.05% Triton X-100, 0.1 mg/mL BSA, 0.1 mg/mL poly(dI-dC), 5 mM DTT, room temperature, 20 min; high values mean tight binding
Conditions: protein: recombinant; dsDNA, one strand shown
parameter_measured: binding signal

[[record]]
residue_string = "AGAGGAAA"
reading = "0.0667 % of ANNNNAAN 8-mers"

[[record]]
residue_string = "ACAACAAT"
reading = "0.0305 % of ANNNNAAN 8-mers"

[[record]]
residue_string = "AAAAAAAA"
reading = "0.193 % of ANNNNAAN 8-mers"

[[record]]
residue_string = "ACGTGAAC"
reading = "0.0247 % of ANNNNAAN 8-mers"

[[record]]
residue_string = "AGTAGAAT"
reading = "0.0892 % of ANNNNAAN 8-mers"

[[record]]
residue_string = "AACCGAAG"
reading = "0.0201 % of ANNNNAAN 8-mers"

[[record]]
residue_string = "ACCGTAAC"
reading = "0.019 % of ANNNNAAN 8-mers"

[[record]]
residue_string = "ATTGGAAA"
reading = "0.0794 % of ANNNNAAN 8-mers"


Given the entry "ATTTTAAC" , report its measured binding signal.
0.0921 % of ANNNNAAN 8-mers

Given the entry "AACTCAAT" , report its measured binding signal.
0.0437 % of ANNNNAAN 8-mers

Values were extracted from paper PMC10812921.
